organism: Rattus norvegicus; assay: Compound was tested for hepatoprotective activity against D-GalN-induced cytotoxicity in primary cultured rat hepatocytes at 30 uM dose; format: functional; settings: Hepatocyte
OUTCOME_MEASURE: inhibition at 30 µM (%)
Give just the number in %; leave the unit off.

# LINE_NOTATION, RECORDED_RESULT
measured = [
    ("OC[C@H]1O[C@@H](O[C@@H](CCc2ccc(O)cc2)C[C@H](O)CCc2ccc(O)cc2)[C@H](O)[C@H](O)[C@H]1O", 27.3),
    ("COc1cc([C@H]2c3c(cc(OC)c(O)c3OC)C[C@@H](CO)[C@@H]2CO[C@H]2O[C@@H](CO)[C@@H](O)[C@H](O)[C@@H]2O)cc(OC)c1O", 24.1),
]

# evaluate next
Asked: Param item = OC[C@@]1(O)CO[C@@H](OC[C@H]2O[C@@H](O[C@H](CCCCc3ccc(O)cc3)CCc3ccc(O)cc3)[C@H](O)[C@H](O)[C@H]2O)[C@@H]1O ; retrieve measured inhibition at 30 µM.
Given back: 43.9

====

organism: Rattus norvegicus; assay: Compound was tested for hepatoprotective activity against D-GalN-induced cytotoxicity in primary cultured rat hepatocytes at 3 uM dose; type: functional; conditions: Hepatocyte
Binary call on inhibition at 3 µM: True from 20% upward, False beneath that.

As a guide, the following entries are already answered.
# LINE_NOTATION, QUALITATIVE_LABEL
rows = [
    ("C[C@H](CCc1ccc(O)cc1)O[C@@H]1O[C@H](CO[C@@H]2O[C@H](CO)[C@@H](O)[C@@H]2O)[C@H](O)[C@@H](O)[C@H]1O", "False"),
    ("C[C@@H](CCc1ccc(O)cc1)O[C@@H]1O[C@H](CO[C@@H]2O[C@@H](CO)[C@H](O)[C@H]2O)[C@@H](O)[C@H](O)[C@H]1O", "False"),
]

Asked: I'd appreciate it if you could say whether OC[C@H]1O[C@@H](O[C@@H](CCc2ccc(O)cc2)C[C@H](O)CCc2ccc(O)cc2)[C@H](O)[C@H](O)[C@H]1O has inhibition at 3 µM at least equal to 20%.
Given back: False

Asked: I'd appreciate it if you could say whether OC[C@@]1(O)CO[C@@H](OC[C@H]2O[C@@H](O[C@H](CCCCc3ccc(O)cc3)CCc3ccc(O)cc3)[C@H](O)[C@H](O)[C@H]2O)[C@@H]1O has inhibition at 3 µM at least equal to 20%.
Given back: True

Asked: I'd appreciate it if you could say whether C[C@@H](CCc1ccc(O)cc1)O[C@@H]1O[C@H](CO[C@@H]2OC[C@](O)(CO)[C@H]2O)[C@H](O)[C@@H](O)[C@H]1O has inhibition at 3 µM at least equal to 20%.
Given back: False

Asked: I'd appreciate it if you could say whether COc1cc([C@@H]2c3c(cc(OC)c(O)c3OC)C[C@H](CO)[C@H]2CO[C@H]2O[C@@H](CO)[C@@H](O)[C@H](O)[C@@H]2O)cc(OC)c1O has inhibition at 3 µM at least equal to 20%.
Given back: False

====

species: Rattus norvegicus; assay: Compound was tested for hepatoprotective activity against D-GalN-induced cytotoxicity in primary cultured rat hepatocytes at 30 uM dose; type: functional; conditions: Hepatocyte
OUTCOME_MEASURE: inhibition at 30 µM
Your reply should be a number followed by the unit it is expressed in.

Examples with their reported inhibition at 30 µM follow.
# LINE_NOTATION, RECORDED_RESULT
measured = [
    ("C[C@@H](CCc1ccc(O)cc1)O[C@@H]1O[C@H](CO[C@@H]2OC[C@](O)(CO)[C@H]2O)[C@H](O)[C@@H](O)[C@H]1O", "0.7%"),
    ("C[C@H](CCc1ccc(O)cc1)O[C@@H]1O[C@H](CO[C@@H]2O[C@H](CO)[C@@H](O)[C@@H]2O)[C@H](O)[C@@H](O)[C@H]1O", "7.5%"),
]

# evaluate next
Asked: Param item = COc1cc([C@@H]2c3c(cc(OC)c(O)c3OC)C[C@H](CO)[C@H]2CO[C@H]2O[C@@H](CO)[C@@H](O)[C@H](O)[C@@H]2O)cc(OC)c1O ; retrieve measured inhibition at 30 µM.
Given back: 10.5%
